- subjectOfTest: Cytochrome P450 2C9 (Homo sapiens) (UniProt P11712)
- Sequence (P11712 whole entry, looked up): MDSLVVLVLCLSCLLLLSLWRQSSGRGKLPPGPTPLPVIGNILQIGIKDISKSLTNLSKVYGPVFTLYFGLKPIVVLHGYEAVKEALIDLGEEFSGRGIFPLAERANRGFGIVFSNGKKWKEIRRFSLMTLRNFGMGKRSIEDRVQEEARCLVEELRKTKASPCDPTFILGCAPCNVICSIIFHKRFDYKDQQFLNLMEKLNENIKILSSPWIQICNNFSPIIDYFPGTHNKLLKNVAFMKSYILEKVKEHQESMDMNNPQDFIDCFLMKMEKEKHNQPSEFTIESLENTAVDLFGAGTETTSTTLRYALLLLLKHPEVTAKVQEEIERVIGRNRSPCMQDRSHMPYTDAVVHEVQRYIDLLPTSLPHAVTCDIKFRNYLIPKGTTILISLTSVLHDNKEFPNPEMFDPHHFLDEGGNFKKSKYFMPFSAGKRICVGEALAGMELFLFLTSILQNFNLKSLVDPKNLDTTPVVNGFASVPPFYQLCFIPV
- assayText: qHTS Assay for Inhibitors and Substrates of Cytochrome P450 2C9 (AID 883); also: nearly all actives have a fitted effect of over 60% in size; also: potency is read from the fitted curve at half-maximal effect
- runParameters: recombinant CYP2C9, luciferin-H luminescence, 60 min; series mostly up to 57.1 µM
- Procedure: NIH Molecular Libraries Screening Centers Network [MLSCN] NIH Chemical Genomics Center [NCGC] MLSCN Grant: None NCGC Assay Overview: The P450 gene superfamily is involved in the metabolism and clearance of xenobiotics. […] The luciferin is then measured by luminescence after the addition of a luciferase detection reagent. […] Inhibitors and some substrates limit the production of luciferin, and decrease measured luminescence. […]
Results filed as inconclusive are left out. Activity calls are given as the source filed them. Calls follow the shape of the dose curve; as a rule, active = well fitted inhibition curve with a large enough effect; inconclusive = small, poorly fitted or top-dose-only effect; inactive = no such curve, though single readings can be large or run the other way.
quantityName: Potency

Look over these answered cases.
1. CCN1C[C@]2(COC(=O)c3ccccc3N3C(=O)C[C@H](C)C3=O)CC[C@H](OC)[C@@]34[C@@H]5C[C@H]6[C@H](OC)[C@H]5[C@](O)(C[C@@H]6OC)[C@@](O)([C@@H](OC)[C@@H]23)[C@@H]14 | inactive
2. COc1c2ccoc2cc2oc(=O)ccc12 | 5010 nM (active)
3. O=C(O)c1ccccc1-c1c2cc(Br)c(=O)cc-2oc2[c]([Hg])c(O)c(Br)cc12 | 631 nM (active)
4. Cc1cccc([C@H](C)c2cnc[nH]2)c1C | 199 nM (active)
5. C/C(O)=C(/C#N)C(=O)Nc1cc(Br)ccc1Br | 7940 nM (active)

Reported Potency, molecule CCOC(=O)c1ncn2c1[C@H]1CCCN1C(=O)c1cc(OC)ccc1-2 : ____
inactive
